// data source = ChEMBL document CHEMBL1145881

Target: Protein farnesyltransferase (Homo sapiens, UniProt P49354+P49356)
Experiment: In vitro inhibitory activity against farnesyltransferase (FT)
Quantity kind: IC50 (nM)
# unit: nM | format: bare number

Reference set, count: 2
[[record]]
molecule = "Cn1cncc1C(OCc1c(-c2cc(Cl)cc(Cl)c2)cc(C#N)c(=O)n1C)c1ccc(C#N)c(I)c1 (stereo not drawn)"
study_target = "Protein farnesyltransferase (Homo sapiens, UniProt P49354+P49356)"
unit_tag = "nM"
number = 0.81

[[record]]
molecule = "Cn1cncc1C(OCc1c(-c2cc(Cl)cc(Cl)c2)cc(C#N)c(=O)n1C)c1ccc(C#N)c(Cl)c1 (stereo not drawn)"
study_target = "Protein farnesyltransferase (Homo sapiens, UniProt P49354+P49356)"
unit_tag = "nM"
number = 0.77


Query: State its IC50 for this molecule: Cn1cncc1C(OCc1c(-c2cccc(Cl)c2)cc(C#N)c(=O)n1C)c1ccc(C#N)c(Br)c1 (stereo not drawn)
Reply: 1.3
